# Tested on: Mus musculus
# PROCEDURE TEXT: Antidepressant-like activity in the forced swimming test (FST) in mice at 0.1 mg/kg dose; Antidepressant like activity
# Format: functional
EXPERIMENTAL READOUT: Activity

INSERT INTO measurements (compound, experimental_readout, reported_result) VALUES
  ('Oc1ccccc1N1CCN(CCC(O)c2ccc3ccccc3c2)CC1 (stereo unspecified)', 'Activity', '0%'),
  ('COc1ccccc1N1CCN(CC/C(=N\O)c2csc3ccccc23)CC1', 'Activity', '0%'),
  ('COc1ccccc1N1CCN(CCC(O)c2csc3ccccc23)CC1 (stereo unspecified)', 'Activity', '35%'),
  ('Oc1ccccc1N1CCN(CCC(O)c2csc3ccccc23)CC1 (stereo unspecified)', 'Activity', '40%'),
  ('COc1ccccc1N1CCN(CC/C(=N\O)c2ccc(C)s2)CC1', 'Activity', '0%'),
  ('COc1ccccc1N1CCN(CCC(Oc2cccc3ccccc23)c2ccsc2)CC1 (stereo unspecified)', 'Activity', '0%');
